target: GluA2 (Rattus norvegicus, UniProt P19491); construct: expressed in transfected cells; host or cells: HEK293T (HEK293) cells, transient co-transfection with a separate EGFP vector; assay: Whole-cell patch clamp recordings of homomeric GluA2 AMPA receptor currents and kinetics in transfected HEK293t cells; type: cell-based; details: 10 mM glutamate for 500 ms, with compound, mean ± SD
Sequence (P19491 22-883 isoform P19491-2 limits assumed): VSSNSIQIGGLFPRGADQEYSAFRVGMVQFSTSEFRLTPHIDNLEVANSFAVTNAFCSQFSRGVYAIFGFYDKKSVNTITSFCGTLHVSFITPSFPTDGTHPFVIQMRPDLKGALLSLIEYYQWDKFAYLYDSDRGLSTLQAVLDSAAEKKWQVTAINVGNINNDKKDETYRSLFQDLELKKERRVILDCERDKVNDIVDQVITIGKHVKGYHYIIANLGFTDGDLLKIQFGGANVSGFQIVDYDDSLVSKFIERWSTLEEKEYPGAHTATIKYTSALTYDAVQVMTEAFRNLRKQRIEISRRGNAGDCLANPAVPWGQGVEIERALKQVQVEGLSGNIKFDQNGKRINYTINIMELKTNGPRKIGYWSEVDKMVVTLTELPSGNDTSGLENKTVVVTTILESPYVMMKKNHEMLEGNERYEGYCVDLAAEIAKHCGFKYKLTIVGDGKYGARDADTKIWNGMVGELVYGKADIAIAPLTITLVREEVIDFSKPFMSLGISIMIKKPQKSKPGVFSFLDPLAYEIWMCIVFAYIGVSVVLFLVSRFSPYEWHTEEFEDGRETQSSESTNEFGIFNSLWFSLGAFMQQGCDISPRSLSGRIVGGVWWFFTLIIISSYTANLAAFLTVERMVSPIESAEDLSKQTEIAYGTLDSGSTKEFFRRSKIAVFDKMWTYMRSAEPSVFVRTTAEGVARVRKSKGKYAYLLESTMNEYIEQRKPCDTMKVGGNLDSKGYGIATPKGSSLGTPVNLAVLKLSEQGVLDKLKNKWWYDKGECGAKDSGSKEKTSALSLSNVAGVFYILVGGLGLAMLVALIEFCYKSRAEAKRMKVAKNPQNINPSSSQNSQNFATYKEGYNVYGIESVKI
Label rule, in plain words: t des (weighted desensitization time constant) of 0.7 ms and up is class 1, under 0.7 ms is class 0.

Enquiry: Threshold query (t des (weighted desensitization time constant) >= 0.7 ms) on `Cc1onc(-c2c(Cl)cccc2Cl)c1C(=O)Nc1ccccc1`
Return: class 1

Enquiry: Threshold query (t des (weighted desensitization time constant) >= 0.7 ms) on `CSc1ccc(NC(=O)c2c(-c3c(Cl)cccc3Cl)noc2C)cc1`
Return: class 0

Enquiry: Threshold query (t des (weighted desensitization time constant) >= 0.7 ms) on `COc1ccc(NC(=O)c2c(-c3c(Cl)cccc3Cl)noc2C)c(OC)c1`
Return: class 1

Enquiry: Threshold query (t des (weighted desensitization time constant) >= 0.7 ms) on `COc1ccccc1Oc1ccc(NC(=O)c2c(-c3c(Cl)cccc3Cl)noc2C)cc1`
Return: class 1

====

biological target: GluA2/3 (UniProt P19491+P42263); construct: expressed in transfected cells; host or cells: HEK293T (HEK293) cells, transient co-transfection; assay: Whole-cell patch clamp recordings of heteromeric GluA2/3 AMPA receptor currents and kinetics in transfected HEK293t cells; format: cell-based; conditions: 10 mM glutamate for 500 ms, with compound, mean ± SD
Sequence (P19491 22-883 isoform P19491-2 limits assumed): as above
Sequence (P42263 29-894 isoform P42263-2 limits assumed): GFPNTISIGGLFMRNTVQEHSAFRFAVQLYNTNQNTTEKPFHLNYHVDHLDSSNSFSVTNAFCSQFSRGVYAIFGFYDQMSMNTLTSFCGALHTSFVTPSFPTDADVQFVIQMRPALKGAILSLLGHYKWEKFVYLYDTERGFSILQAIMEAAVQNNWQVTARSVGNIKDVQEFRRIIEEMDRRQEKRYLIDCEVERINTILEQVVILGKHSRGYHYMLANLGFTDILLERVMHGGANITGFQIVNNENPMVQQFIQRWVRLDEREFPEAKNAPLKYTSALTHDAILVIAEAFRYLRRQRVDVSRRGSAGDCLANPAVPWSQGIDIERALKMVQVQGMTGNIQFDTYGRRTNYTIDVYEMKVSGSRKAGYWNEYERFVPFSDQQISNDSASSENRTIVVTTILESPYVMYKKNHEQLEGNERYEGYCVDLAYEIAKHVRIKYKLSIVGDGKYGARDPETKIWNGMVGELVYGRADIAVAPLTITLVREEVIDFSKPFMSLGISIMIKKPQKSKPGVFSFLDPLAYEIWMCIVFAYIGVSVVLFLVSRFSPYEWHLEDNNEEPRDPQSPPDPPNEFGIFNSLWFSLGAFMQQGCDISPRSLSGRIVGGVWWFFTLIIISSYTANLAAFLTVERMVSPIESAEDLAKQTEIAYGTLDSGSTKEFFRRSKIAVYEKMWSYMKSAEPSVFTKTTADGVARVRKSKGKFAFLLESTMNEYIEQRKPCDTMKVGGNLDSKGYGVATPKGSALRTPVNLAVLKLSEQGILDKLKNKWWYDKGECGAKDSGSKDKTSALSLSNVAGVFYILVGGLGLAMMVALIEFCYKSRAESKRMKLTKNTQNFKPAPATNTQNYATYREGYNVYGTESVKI
Reported t des (weighted desensitization time constant) values follow for various compounds
Answer format: numeric, ms implied, no suffix.

Take a look at these entries with their results.
• Cc1onc(-c2c(Cl)cccc2Cl)c1C(=O)Nc1ccc(C(C)(C)C)cc1 [CIC-12] = 2.3
• COc1cc(NC(=O)c2c(-c3c(Cl)cccc3Cl)noc2C)c(OC)cc1Cl [CIC-2] = 0.8
• COc1ccc(NC(=O)c2c(-c3c(Cl)cccc3Cl)noc2C)cc1OC [CIC-6] = 1.6
• COc1ccccc1Oc1ccc(NC(=O)c2c(-c3c(Cl)cccc3Cl)noc2C)cc1 [CIC-7] = 1.8
• COc1ccc(NC(=O)c2c(-c3c(Cl)cccc3Cl)noc2C)c(OC)c1 [CIC-5] = 1.0
• COc1cc(NC(=O)c2c(-c3c(Cl)cccc3Cl)noc2C)cc(OC)c1 [CIC-3] = 0.9

Enquiry: Please list t des (weighted desensitization time constant) recorded for the compound COc1cc(NC(=O)c2c(-c3c(Cl)cccc3Cl)noc2C)cc(OC)c1OC [CIC-4]
Return: 1.1

====

biological target: GluA2/3 (UniProt P19491+P42263); construct: expressed in transfected cells; host or cells: HEK293T (HEK293) cells, transient co-transfection; assay: Whole-cell patch clamp recordings of heteromeric GluA2/3 AMPA receptor currents and kinetics in transfected HEK293t cells; type: cell-based; settings: 16 µM compound co-applied with agonist, HEK293t, −60 mV, pH 7.4, 22 °C, mean ± SD, n = 10
Reported Amplitude (peak whole-cell current in presence of compound) values follow for various molecules
Answer format: numeric, pA implied, no suffix.

- Cc1onc(-c2c(F)cccc2Cl)c1C(=O)Nc1ccc(OC(F)(F)F)cc1: 141
- Cc1onc(-c2c(Cl)cccc2Cl)c1C(=O)Nc1ccc(-c2ccccc2)cc1: 124
- COc1cc(NC(=O)c2c(-c3c(Cl)cccc3Cl)noc2C)c(OC)cc1Cl: 75
- COc1ccc(NC(=O)c2c(-c3c(Cl)cccc3Cl)noc2C)c(OC)c1: 105

Let us examine a further case.
Enquiry: Please list Amplitude (peak whole-cell current in presence of compound) recorded for the molecule `Cc1onc(-c2c(Cl)cccc2Cl)c1C(=O)Nc1ccccc1`
Return: 123

====

target: GluA2/3 (UniProt P19491+P42263); construct: expressed in transfected cells; host or cells: HEK293T (HEK293) cells, transient co-transfection; assay: Whole-cell patch clamp recordings of heteromeric GluA2/3 AMPA receptor currents and kinetics in transfected HEK293t cells; type: cell-based; settings: 10 mM glutamate for 500 ms, with compound, mean ± SD
Threshold-based label: t des (weighted desensitization time constant) under 2 ms gives 1.0, t des (weighted desensitization time constant) not under 2 ms gives 0.0.

* CSc1ccc(NC(=O)c2c(-c3c(Cl)cccc3Cl)noc2C)cc1 [CIC-1] | 1.0
* Cc1onc(-c2c(F)cccc2Cl)c1C(=O)Nc1ccc(OC(F)(F)F)cc1 [CIC-11] | 0.0
* Cc1onc(-c2c(Cl)cccc2Cl)c1C(=O)Nc1ccccc1 [CIC-8] | 1.0

Okay, now this compound:
Enquiry: Hello, is t des (weighted desensitization time constant) of the following compound strictly smaller than 2 ms? Cc1onc(-c2c(Cl)cccc2Cl)c1C(=O)Nc1ccc(OC(F)(F)F)cc1 [CIC-10]
Return: 0.0

====

molecular target: GluA2 (Rattus norvegicus); construct: expressed in transfected cells; host or cells: HEK293T (HEK293) cells, transient co-transfection with a separate EGFP vector; experiment: Whole-cell patch clamp recordings of homomeric GluA2 AMPA receptor currents and kinetics in transfected HEK293t cells; format: cell-based; conditions: 16 µM compound, mean ± SD, n = 10
experimentalEndpoint: A/AI (amplitude ratio, glutamate alone / with compound)
// return a plain number; no unit text

• Cc1onc(-c2c(Cl)cccc2Cl)c1C(=O)Nc1ccccc1 [CIC-8] = 4.36
• Cc1onc(-c2c(Cl)cccc2Cl)c1C(=O)Nc1ccc(OC(F)(F)F)cc1 [CIC-10] = 3.90
• COc1cc(NC(=O)c2c(-c3c(Cl)cccc3Cl)noc2C)cc(OC)c1OC [CIC-4] = 5.0
• COc1ccc(NC(=O)c2c(-c3c(Cl)cccc3Cl)noc2C)cc1OC [CIC-6] = 4.84

Enquiry: Please list A/AI (amplitude ratio, glutamate alone / with compound) recorded for the compound Cc1onc(-c2c(Cl)cccc2Cl)c1C(=O)Nc1ccc(C(C)(C)C)cc1 [CIC-12]
Return: 3.04

====

molecular target: GluA2 (Rattus norvegicus); construct: expressed in transfected cells; host or cells: HEK293T (HEK293) cells, transient co-transfection with a separate EGFP vector; test: Whole-cell patch clamp recordings of homomeric GluA2 AMPA receptor currents and kinetics in transfected HEK293t cells; type: cell-based; details: inhibition of whole-cell peak current, concentration–response, Hill fit, read-out: IC50
Reported pIC50 values follow for various compounds
Schema: pIC50 number; meaning minus log10 of the concentration expressed in molar units.

Enquiry: # return pIC50 for Cc1onc(-c2c(F)cccc2Cl)c1C(=O)Nc1ccc(OC(F)(F)F)cc1 [CIC-11] , test system: GluA2 (Rattus norvegicus)
Return: 5.15

Enquiry: # return pIC50 for COc1cc(NC(=O)c2c(-c3c(Cl)cccc3Cl)noc2C)cc(OC)c1 [CIC-3] , test system: GluA2 (Rattus norvegicus)
Return: 5.32

Enquiry: # return pIC50 for COc1ccccc1Oc1ccc(NC(=O)c2c(-c3c(Cl)cccc3Cl)noc2C)cc1 [CIC-7] , test system: GluA2 (Rattus norvegicus)
Return: 5.22

====

biological target: GluA2 (Rattus norvegicus); construct: expressed in transfected cells; host or cells: HEK293T (HEK293) cells, transient co-transfection with a separate EGFP vector; assay: Whole-cell patch clamp recordings of homomeric GluA2 AMPA receptor currents and kinetics in transfected HEK293t cells; type: cell-based; details: 16 µM compound, mean ± SD, n = 10
Label rule, in plain words: A/AI (amplitude ratio, glutamate alone / with compound) of 6 and up is true, under 6 is false.

Sample answers from the record:
- COc1ccc(NC(=O)c2c(-c3c(Cl)cccc3Cl)noc2C)c(OC)c1: false
- CSc1ccc(NC(=O)c2c(-c3c(Cl)cccc3Cl)noc2C)cc1: true
- COc1cc(NC(=O)c2c(-c3c(Cl)cccc3Cl)noc2C)cc(OC)c1: false
- Cc1onc(-c2c(F)cccc2Cl)c1C(=O)Nc1ccc(OC(F)(F)F)cc1: false
- COc1ccccc1Oc1ccc(NC(=O)c2c(-c3c(Cl)cccc3Cl)noc2C)cc1: false
- COc1cc(NC(=O)c2c(-c3c(Cl)cccc3Cl)noc2C)c(OC)cc1Cl: true

Okay, now this compound:
Enquiry: Threshold query (A/AI (amplitude ratio, glutamate alone / with compound) >= 6) on `Cc1onc(-c2c(Cl)cccc2Cl)c1C(=O)Nc1ccc(-c2ccccc2)cc1`
Return: false

====

target: GluA2/3 (UniProt P19491+P42263); construct: expressed in transfected cells; host or cells: HEK293T (HEK293) cells, transient co-transfection; test: Whole-cell patch clamp recordings of heteromeric GluA2/3 AMPA receptor currents and kinetics in transfected HEK293t cells; format: cell-based; conditions: glutamate alone after the compound, mean ± SD, n = 10
experimentalEndpoint: Amplitude, applying glutamate alone after compound
Units required after the number.

- Cc1onc(-c2c(Cl)cccc2Cl)c1C(=O)Nc1ccc(OC(F)(F)F)cc1: 482±128 pA
- Cc1onc(-c2c(Cl)cccc2Cl)c1C(=O)Nc1ccc(C(C)(C)C)cc1: 478±127 pA

Enquiry: Please list Amplitude, applying glutamate alone after compound recorded for the compound `Cc1onc(-c2c(F)cccc2Cl)c1C(=O)Nc1ccc(OC(F)(F)F)cc1`
Return: 476±112 pA

Enquiry: Please list Amplitude, applying glutamate alone after compound recorded for the compound `COc1ccc(NC(=O)c2c(-c3c(Cl)cccc3Cl)noc2C)c(OC)c1`
Return: 548±40 pA

Enquiry: Please list Amplitude, applying glutamate alone after compound recorded for the compound `Cc1onc(-c2c(Cl)cccc2Cl)c1C(=O)Nc1ccccc1`
Return: 513±99 pA

Enquiry: Please list Amplitude, applying glutamate alone after compound recorded for the compound `COc1cc(NC(=O)c2c(-c3c(Cl)cccc3Cl)noc2C)cc(OC)c1`
Return: 542±66 pA

Enquiry: Please list Amplitude, applying glutamate alone after compound recorded for the compound `COc1ccccc1Oc1ccc(NC(=O)c2c(-c3c(Cl)cccc3Cl)noc2C)cc1`
Return: 524±76 pA

Enquiry: Please list Amplitude, applying glutamate alone after compound recorded for the compound `COc1cc(NC(=O)c2c(-c3c(Cl)cccc3Cl)noc2C)c(OC)cc1Cl`
Return: 552±44 pA

Enquiry: Please list Amplitude, applying glutamate alone after compound recorded for the compound `COc1ccc(NC(=O)c2c(-c3c(Cl)cccc3Cl)noc2C)cc1OC`
Return: 534±56 pA

Enquiry: Please list Amplitude, applying glutamate alone after compound recorded for the compound `Cc1onc(-c2c(Cl)cccc2Cl)c1C(=O)Nc1ccc(-c2ccccc2)cc1`
Return: 484±89 pA

Enquiry: Please list Amplitude, applying glutamate alone after compound recorded for the compound `CSc1ccc(NC(=O)c2c(-c3c(Cl)cccc3Cl)noc2C)cc1`
Return: 562±28 pA

Enquiry: Please list Amplitude, applying glutamate alone after compound recorded for the compound `COc1cc(NC(=O)c2c(-c3c(Cl)cccc3Cl)noc2C)cc(OC)c1OC`
Return: 531±89 pA
